Literature compilation of pKi measurements on Xanthine dehydrogenase/oxidase (Bos taurus).
Sequence (P80457 whole entry): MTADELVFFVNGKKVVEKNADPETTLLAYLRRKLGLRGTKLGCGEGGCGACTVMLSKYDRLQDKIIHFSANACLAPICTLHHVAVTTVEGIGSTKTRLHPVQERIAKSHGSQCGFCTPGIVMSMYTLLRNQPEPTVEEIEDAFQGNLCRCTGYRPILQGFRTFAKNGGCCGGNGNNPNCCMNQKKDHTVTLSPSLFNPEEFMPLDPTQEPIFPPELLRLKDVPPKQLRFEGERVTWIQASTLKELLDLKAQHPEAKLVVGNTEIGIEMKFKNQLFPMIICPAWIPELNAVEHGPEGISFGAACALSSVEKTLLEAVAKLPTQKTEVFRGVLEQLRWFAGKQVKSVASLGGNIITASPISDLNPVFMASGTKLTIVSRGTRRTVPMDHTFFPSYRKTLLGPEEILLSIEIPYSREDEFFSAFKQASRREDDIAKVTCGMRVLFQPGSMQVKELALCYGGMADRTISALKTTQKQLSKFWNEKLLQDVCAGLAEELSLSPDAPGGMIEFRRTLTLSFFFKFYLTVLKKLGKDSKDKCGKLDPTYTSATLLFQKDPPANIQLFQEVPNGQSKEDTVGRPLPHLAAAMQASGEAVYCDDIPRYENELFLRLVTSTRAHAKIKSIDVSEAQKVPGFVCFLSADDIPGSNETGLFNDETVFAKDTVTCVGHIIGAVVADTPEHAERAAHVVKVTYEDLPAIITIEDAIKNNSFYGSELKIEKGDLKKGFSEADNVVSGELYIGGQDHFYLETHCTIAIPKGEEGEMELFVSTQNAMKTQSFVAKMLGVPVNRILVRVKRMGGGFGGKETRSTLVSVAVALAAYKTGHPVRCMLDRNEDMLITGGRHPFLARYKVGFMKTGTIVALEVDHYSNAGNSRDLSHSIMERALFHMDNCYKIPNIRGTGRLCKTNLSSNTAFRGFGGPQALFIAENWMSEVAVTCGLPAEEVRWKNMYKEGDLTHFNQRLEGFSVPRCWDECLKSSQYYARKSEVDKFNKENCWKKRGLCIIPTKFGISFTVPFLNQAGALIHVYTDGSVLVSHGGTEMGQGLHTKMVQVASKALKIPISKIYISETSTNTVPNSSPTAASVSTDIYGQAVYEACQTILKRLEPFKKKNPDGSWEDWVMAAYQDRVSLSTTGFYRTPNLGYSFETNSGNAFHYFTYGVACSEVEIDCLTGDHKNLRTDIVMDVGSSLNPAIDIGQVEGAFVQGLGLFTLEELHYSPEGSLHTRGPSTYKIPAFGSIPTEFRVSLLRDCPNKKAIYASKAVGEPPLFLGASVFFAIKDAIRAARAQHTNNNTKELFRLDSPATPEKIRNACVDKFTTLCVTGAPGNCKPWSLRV
pKi: −log10 of the molar value.

structure.smiles.string: O=C(N/N=C/c1ccc(O)c(O)c1)c1cccnc1
pKi: 5.14

structure.smiles.string: COc1cccc(/C=N/NC(=O)c2ccncc2)c1O
pKi: 4.82

structure.smiles.string: Oc1nc2nc(S)nc-2c2n1CCCS2
pKi: 6.05

structure.smiles.string: Nc1nc2ncc(C=O)nc2c(=O)[nH]1
pKi: 8.75

structure.smiles.string: O=C(N/N=C/c1c(O)cc(O)cc1O)c1ccncc1
pKi: 6.09

structure.smiles.string: CN1C(=O)Cc2[nH]ccc2C1=O
pKi: 3.92

structure.smiles.string: N#Cc1cn(C2CCCC2)c2ccc(-c3noc(=O)[nH]3)cc12
pKi: 6.86

structure.smiles.string: CCOc1cccc(/C=N/NC(=O)c2ccncc2)c1O
pKi: 4.29

structure.smiles.string: Cn1c(N)nc2nccc-2c1O
pKi: 4.40

structure.smiles.string: CC(C)CCOc1ccc(-c2nccc(O)n2)cc1C#N
pKi: 7.74

structure.smiles.string: Cn1ccc2c(=O)[nH]c(N)nc21
pKi: 5.52
